I'd appreciate it if you could supply TbrCatL Inhibition 10’ values for the items below.
System Name: TbrCatL (Trypanosoma brucei rhodesiense, UniProt Q95PM0)
Construct: Conor Caffrey (University of California San Diego)
Sequence (Q95PM0 entry or part of it): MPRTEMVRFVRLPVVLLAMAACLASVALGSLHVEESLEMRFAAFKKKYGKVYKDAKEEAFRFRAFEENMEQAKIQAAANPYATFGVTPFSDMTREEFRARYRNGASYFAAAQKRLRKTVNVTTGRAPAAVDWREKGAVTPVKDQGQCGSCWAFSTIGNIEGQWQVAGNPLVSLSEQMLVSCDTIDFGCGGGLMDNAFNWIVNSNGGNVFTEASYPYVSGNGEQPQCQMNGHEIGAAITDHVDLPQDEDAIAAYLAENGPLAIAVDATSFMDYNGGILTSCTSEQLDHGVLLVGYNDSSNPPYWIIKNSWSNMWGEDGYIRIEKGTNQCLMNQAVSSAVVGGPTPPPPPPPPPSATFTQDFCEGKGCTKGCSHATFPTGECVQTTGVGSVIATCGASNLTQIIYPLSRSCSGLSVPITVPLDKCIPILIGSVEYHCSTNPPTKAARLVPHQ
Test: TbrCatL enzymatic inhibition assay (cleavage of fluorogenic substrate Z-FR-AMC);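 further: at 5 µM compound concentration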
Type: biochemical
Conditions Used: 10’ (pre-incubation); sheet Screening results
One number for each entry, in %.

Some entries whose results are on file:
- COc1ccccc1OCCCCn1c(C2CC2)nc2ccccc21: -17
- Brc1c(-c2ccc3c(c2)OCO3)nc2ncccn12: -1.8
- CC1CCCN(C(=O)C(C)Nc2cc(Cl)ccc2N2CCOCC2)C1 (stereo not shown): 0.2
- CNc1nnc(Sc2cnn(-c3ccccc3)c(=O)c2Cl)s1: 1.7
- Cc1nc2ccccn2c1C(=O)NCc1ccc(Cl)cc1: 5.6
- O=C(Nc1ccnc(-c2cccnc2)n1)c1cc(C(F)(F)F)cc(C(F)(F)F)c1: -5
- CCOC(=O)c1cc(-c2csc(Nc3c(C)cc(C)cc3C)n2)on1: 15
- N=C(N)c1ccc(OCCCCCOc2ccc(C(=N)N)cc2)cc1: -3

Kindly give each listed record's TbrCatL Inhibition 10’.
1. CN1CCN(c2cc(-c3ccc(F)cc3)nc(-c3ccncc3)n2)CC1
2. CC(C)C(C(=O)Nc1ccc(S(=O)(=O)N(C)C)cc1)c1ccc(Cl)cc1 (stereo not shown)

[reply]
[9, -2.5]

###

System Name: TbrCatL (Trypanosoma brucei rhodesiense)
Construct: Conor Caffrey (University of California San Diego)
Test: TbrCatL enzymatic inhibition assay (cleavage of fluorogenic substrate Z-FR-AMC);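 further: at 5 µM compound concentration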
Assay type: biochemical
Conditions Used: 0’ (pre-incubation time); Pathogen Box screening results
Measurement Name: TbrCatL Inhibition 0’ (%)
One number for each entry, in %.

Answered cases to consult:
- CC(C)(C)C(=O)N(CCCCCCN1C[C@H](O)[C@@H](O)[C@H](O)[C@H]1CO)C1CCCCCC1 [MMV688543]: -7
- Cc1ccc2nc(C)c(-c3ccn(Cc4ccccc4)n3)n2c1 [MMV688939]: -0.4
- CCCCCCCCCCCCCCCCOP(=O)([O-])OCC[N+](C)(C)C [MMV688990]: -2.4
- Cc1cc(Cl)ccc1NC(=O)CCc1ccc(S(=O)(=O)NCC(C)C)cc1 [MMV161996]: 15
- O=C(Nc1n[nH]c(=S)s1)c1cc(Br)ccc1Cl [MMV676492]: -16

// batch mode: one TbrCatL Inhibition 0’ value per listed entry
1. NCCC(O)C(=O)N[C@@H]1C[C@H](N)[C@@H](OC2O[C@H](CN)[C@@H](O)[C@H](O)[C@H]2O)[C@H](O)C1OC1O[C@H](CO)[C@@H](O)[C@H](N)[C@H]1O (some centres unmarked) [MMV687796]
2. CC(=O)N1CCN(c2ccc(Oc3ccc(Cl)cc3O)cc2)CC1 [MMV688330]

[reply]
1. -9.5
2. -8

Batch lookup, TbrCatL Inhibition 0’ per entry.
1. C[C@H](C(N)=O)N1CCCC[C@@H]1c1ccc(OCc2cccc(F)c2)cc1 [MMV676270]
2. CCOC(=O)c1noc(N)c1-c1ccccc1 [MMV1236379]
3. CC(=O)OC[C@H]1O[C@@H]([S-])[C@H](OC(C)=O)[C@@H](OC(C)=O)[C@@H]1OC(C)=O.CC[PH+](CC)CC.[Au] [MMV688978]
4. Nc1ccc2ncnc(Nc3ccc(OCc4cccc(F)c4)c(Cl)c3)c2c1 [MMV688273]

[reply]
1. 3.2
2. -9
3. -13
4. 0.9

Batch request: TbrCatL Inhibition 0’ per item, same order as input.
1. Cc1nn(C(=O)Nc2cccc(C(F)(F)F)c2)c(C)c1Sc1ncccn1 [MMV688552]
2. CO/N=C(/C(=O)OC)c1ccccc1CO/N=C(/C)c1cccc(C(F)(F)F)c1 [MMV688754]
3. CO[C@@H]1CN(c2ccc(C#CC3(O)CN4CCC3CC4)c(Cc3ccccc3)n2)C[C@H]1O (some centres unmarked) [MMV688415]
4. O=[N+]([O-])c1cn2c(n1)OC[C@@H](OCc1ccc(OC(F)(F)F)cc1)C2 [MMV688755]

[reply]
[-0.1, -4, -8, -0.5]

Could you report TbrCatL Inhibition 0’ for every entry in the following list?
1. Cc1ccc(-c2cc(C(=O)Nc3cccnc3)c3cc(Br)ccc3n2)cc1 [MMV016838]
2. Cc1cc(=O)[nH]c(-n2nc(C)cc2C)n1 [MMV393995]

[reply]
[1.7, -13]

###

System Name: TbrCatL (Trypanosoma brucei rhodesiense, UniProt Q95PM0)
Construct: Conor Caffrey (University of California San Diego)
Test: TbrCatL enzymatic inhibition assay (cleavage of fluorogenic substrate Z-FR-AMC);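 further: at 5 µM compound concentration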
Type: biochemical
Conditions Used: 10’ (pre-incubation); sheet Screening results
Measurement Name: TbrCatL Inhibition 10’ (%)
Answers are plain numbers, in %.

* O=C(c1ccc(F)cc1)N(CCNc1ccccc1)c1ccccc1 | -1.3
* O=C(NC1CCCCC1)N1CCN(Cc2ccc3c(c2)OCO3)CC1 | 8
* CC(=O)NC[C@@H]1CN(c2ccc(N3CCOCC3)c(F)c2)C(=O)O1 | -0.1
* CCc1c(C)nc(-n2nc(C)cc2NC(=O)c2ccccc2SC)[nH]c1=O | -17

Please give TbrCatL Inhibition 10’, item by item, for the list that follows.
1. NCCN(C(=O)c1ccc(Cl)cc1Cl)c1ccc(OCc2ccc(Cl)cc2)cc1
2. O=C(Nc1nc(-c2ccccn2)cs1)c1cncn1-c1ccccc1
3. O=C(c1n[nH]c2c1CCCC2)N1CCN(Cc2ccc3c(c2)OCO3)CC1

[reply]
[1, -109, -7]

Dear reader, for each entry below, please note its TbrCatL Inhibition 10’.
1. O=C(Nc1ccc2c(c1)B(O)OC2)c1ccccc1C(F)(F)F
2. O=C(c1cc2ccccc2o1)N1CCN(Cc2ccc3c(c2)OCO3)CC1
3. Cc1ccc2cc(C3NC(=O)c4ccccc4N3)c(Cl)nc2c1 (stereo not drawn)
4. CCC(Sc1nc2ccccc2o1)C(=O)Nc1nccs1 (stereo not drawn)
5. COC(=O)c1c(NC(=O)c2cc3ccccc3oc2=O)sc2c1CCN(Cc1ccccc1)C2
6. CCc1nn(C)c(C(=O)NCc2ccc(Oc3ccc(C)cc3)cc2)c1Cl

[reply]
1: -1.7; 2: -4.7; 3: 9; 4: 7.5; 5: -3.2; 6: 14

###

Assign Cruzain Inhibition 0’ to each entry below.
System Name: cruzain (Trypanosoma cruzi, UniProt P25779);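 further: at 5 µM compound concentration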
Sequence (P25779 123-337 limits assumed): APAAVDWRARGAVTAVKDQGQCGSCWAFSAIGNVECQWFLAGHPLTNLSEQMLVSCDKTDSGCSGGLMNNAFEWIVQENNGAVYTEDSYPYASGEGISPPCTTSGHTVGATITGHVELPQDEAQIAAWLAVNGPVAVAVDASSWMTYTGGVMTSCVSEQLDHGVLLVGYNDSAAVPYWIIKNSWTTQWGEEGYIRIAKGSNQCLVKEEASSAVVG
Test: biochemical
Conditions Used: 0’ (no pre-incubation); sheet Screening results
Give bare numbers, in %.

Take a look at these entries with their results.
- Cc1cc(Nc2ccncc2)n2nc(C)c(-c3ccccc3Cl)c2n1: 4.7
- CS(=O)(=O)c1cccc(-c2cnc3[nH]cc(-c4ccc(CCC(=O)O)cc4)c3c2)c1: 12
- CO/C=C(\C(=O)OC)c1ccccc1Oc1cc(Oc2ccccc2C#N)ncn1: 1.6

Please report Cruzain Inhibition 0’ for every entry that follows.
1. Cc1cc(C(=O)Nc2cnn(Cc3ccc(Cl)cc3Cl)c2)no1
2. Cc1ccccc1CN1CCC(O)(c2ccc(Cl)c(C(F)(F)F)c2)CC1
3. O=C(NCc1ccco1)N1CCN(Cc2ccc(Cl)s2)CC1
4. O=C(c1ccc(F)cc1)N(CCNc1ccccc1)c1ccccc1
5. CO[C@@H](C(=O)N1Cc2[nH]nc(NC(=O)c3ccc(N4CCN(C)CC4)cc3)c2C1)c1ccccc1
6. CC(C)(C)OC(=O)N1CCN(c2nccc(-c3ccc(-c4ccc(Cl)cc4)s3)n2)CC1

[reply]
-1.8
10
-0.7
6
24
18

// input: 8 compounds below; output: Cruzain Inhibition 0’ for each
1. Cc1c[nH]c(CCNC(=O)c2cc(-c3ccc(Cl)cc3)cs2)n1
2. Cc1noc(C)c1C(=O)N1CCCC(c2[nH]c3c(C)cccc3c2-c2ccncc2)C1 (stereo not shown)
3. COc1cccn2c(C(=O)N3CCCCC3)c(C(F)(F)F)nc12
4. CC1CCCN(C(=O)C(C)Nc2cc(Cl)ccc2N2CCOCC2)C1 (stereo not shown)
5. CC(C)(C)n1nc(-c2ccccc2)c2c(N)ncnc21
6. CC(C)(C(=O)Nc1ccc(F)cc1)n1cc(-c2ccccc2F)cn1
7. Nc1c2c(nc3sc4c(c13)CCCC4)CCCC2
8. c1ccc(C[C@@H]2CN(c3nccc(Oc4ccc(-n5ccnc5)cc4)n3)CCN2)cc1

[reply]
1: 17; 2: 0.3; 3: 8; 4: 3.4; 5: 8; 6: 7; 7: 11; 8: 14

For every listed record, write down its Cruzain Inhibition 0’.
1. Cc1nc2ccccn2c1C(=O)NCc1ccc(Cl)cc1
2. Cc1ccc(S(=O)(=O)N2CCN(C(=O)c3cc(-c4ccccc4)n[nH]3)CC2)cc1
3. COC(=O)C1=C(C)NC(C)=C(C(=O)OC(C)C)[C@H]1c1cccc2nonc12
4. CNC1C(OC2C(OC3C(O)C(O)C(N=C(N)N)C(O)C3N=C(N)N)OC(C)C2(O)C=O)OC(CO)C(O)C1O (stereo not shown)

[reply]
[25, -5, 26, -4]

Batch lookup, Cruzain Inhibition 0’ per entry.
1. CCN(CC)CCCCCCNc1cc(OC)cc2c(C)ccnc12
2. COC(=O)c1c(NC(=O)c2cc3ccccc3oc2=O)sc2c1CCN(Cc1ccccc1)C2
3. O=C(CCC1CCCCC1)Nc1cccc(-c2nnc(-c3ccco3)o2)c1
4. O=C(NC1CC1)c1ccc(N2CCOc3ccc(Cl)cc32)s1
5. COc1nc2ccc(Br)cc2cc1[C@@H](c1ccccc1)[C@@](O)(CCN(C)C)c1cccc2ccccc12

[reply]
1: 16; 2: 24; 3: 0; 4: 18; 5: 19

Lab note: each compound below needs its Cruzain Inhibition 0’ filled in.
1. O=C(NC1CC1)c1ccc(N2CCC(Cc3ccccc3)CC2)nc1
2. CC(=O)Oc1ccccc1C(=O)Nc1ncc([N+](=O)[O-])s1
3. Clc1ccc(CCNc2cc(-c3ccccc3)nc3ncnn23)cc1
4. CC[C@H](CO)NCCN[C@H](CC)CO
5. O=C(NCCc1c[nH]c2ccccc12)c1cc2ccccc2oc1=O
6. O=C(Nc1nnc(-c2ccc(Cl)s2)o1)c1ccc(Cl)s1

[reply]
[3, 8, 15, -4.5, 14, -8]

Batch lookup, Cruzain Inhibition 0’ per entry.
1. Cc1nnc(NC(=O)c2cn(-c3ccccc3)nc2-c2ccccc2C)o1
2. NCCC[C@@](N)(C(=O)O)C(F)F

[reply]
1: 4.5; 2: 20

The following compounds each have a reported value; give each one's Cruzain Inhibition 0’.
1. CCOc1ccc2cc(-c3nn(CC4CCN(C)CC4)c4ncnc(N)c34)ccc2c1
2. COc1ccc(Nc2ccccc2NC(=O)c2ccc(=O)[nH]c2)cc1
3. Nc1ncnc2c1ncn2C[C@@H](O)[C@@H](O)C(=O)O

[reply]
[27, 2.8, 18]
